target: GST-YTHDC1 (345-509) protein (Homo sapiens); construct: GST-YTHDC1 (345-509) protein; assay: Fluorescence polarization-based in vitro enzyme-level test against YTHDC1; type: binding; conditions: 30 nM GST-YTHDC1 (345-509), FAM-labeled m6A-modified single-stranded oligonucleotide, 18° C., 4 hours; read-out: IC50 (Inhibitory Activity against YTHDC1)
PROPERTY LABEL: pIC50
One number for each entry, as −log10 of the molar value.

Query: Tell me pIC50 of O=C(Nc1ccc(-c2ccncc2)cc1)c1cc(C(=O)c2ccccc2C(F)(F)F)c[nH]1 when tested on GST-YTHDC1 (345-509) protein (Homo sapiens).
Result: 7.92

Query: Enter recorded pIC50 with GST-YTHDC1 (345-509) protein (Homo sapiens) for O=C(Nc1ccc(-c2cnco2)cc1)c1cc(C(=O)c2ccccc2N2CCOC2=O)c[nH]1 here.
Result: 7.55

Further cases:
Query: Answer briefly: pIC50 recorded on GST-YTHDC1 (345-509) protein (Homo sapiens) for O=C(Nc1ccc(C(F)(F)F)cc1)c1cc(C(=O)c2ccccc2C(F)(F)F)c[nH]1
Result: 7.41

###

Provide the recorded IC50 for the entries that follow.
molecular target: GST-YTHDC1 (345-509) protein (Homo sapiens, UniProt Q96MU7); construct: GST-YTHDC1 (345-509) protein; assay: Fluorescence polarization-based in vitro enzyme-level test against YTHDC1; type: binding; details: 30 nM GST-YTHDC1 (345-509), FAM-labeled m6A-modified single-stranded oligonucleotide, 18° C., 4 hours; read-out: IC50 (Inhibitory Activity against YTHDC1)
One number for each entry, in nM.

See these solved cases before continuing.
Query: Assign IC50 to the following record: O=C(Nc1ccc(-c2cnco2)cc1)c1cc(C(=O)c2ccccc2N2CC3CCC2CO3)c[nH]1 (stereo not shown) [Compound 134]
Result: 99

Query: For COc1cc(NC(=O)c2cc(C(=O)c3ccccc3C(F)(F)F)c[nH]2)ccc1-c1cnco1 [Compound 90] , write its IC50.
Result: 3.7

Query: Dear colleague, please send me the reported IC50 for O=C(Nc1ccc(F)cc1)c1cc(C(=O)c2ccccc2C(F)(F)F)c[nH]1 [Compound 15] when you can.
Result: 105

Query: Find the measured IC50 of O=C(Nc1ccc(-c2cnco2)cc1)c1cc(C(=O)c2ccccc2N2CCCC2=O)c[nH]1 [Compound 121] and report it.
Result: 25

Query: Given the compound O=C(Nc1ccc(S(=O)(=O)Nc2ccccc2)cc1)c1cc(C(=O)c2ccccc2C(F)(F)F)c[nH]1 [Compound 123] , write its reported IC50.
Result: 118

Query: Give the value of IC50 reported for the following: O=C1CC2C=C(c3ccc(NC(=O)c4cc(C(=O)c5ccccc5C(F)(F)F)c[nH]4)cc3)C=CC2N1 (stereo not shown) [Compound 126]
Result: 13

Parameters: items (list). Returns: IC50 for each item.
1. Cn1nc(C(F)(F)F)cc1-c1ccc(NC(=O)c2cc(C(=O)c3ccccc3C(F)(F)F)c[nH]2)cc1 [Compound 30]
2. CS(=O)(=O)c1ccccc1-c1ncc(F)c2[nH]c(C(=O)Nc3ccc(-c4cncs4)cc3)cc12 [Compound 58]

Result:
1. 530
2. 80

###

target: GST-YTHDC1 (345-509) protein (Homo sapiens, UniProt Q96MU7); construct: GST-YTHDC1 (345-509) protein; assay: Fluorescence polarization-based in vitro enzyme-level test against YTHDC1; type: binding; settings: 30 nM GST-YTHDC1 (345-509), FAM-labeled m6A-modified single-stranded oligonucleotide, 18° C., 4 hours; read-out: IC50 (Inhibitory Activity against YTHDC1)
PROPERTY LABEL: IC50 (nM)
Answers are plain numbers, in nM.

Please supply IC50 for each of the following items, keeping them in order.
1. O=C(Nc1ccc(-c2cnco2)cc1)c1cc(C(=O)c2ccccc2C(F)(F)F)c[nH]1 [Compound 105]
2. COC(=O)c1cccc(-c2ccc(NC(=O)c3cc(C(=O)c4ccccc4C(F)(F)F)c[nH]3)cc2)c1
3. CN1CCN(c2ncc(-c3ccc(NC(=O)c4cc(C(=O)c5ccccc5C(F)(F)F)c[nH]4)cc3)o2)CC1
4. CN1CCN(c2ccc(-c3ccc(NC(=O)c4cc(C(=O)c5ccccc5C(F)(F)F)c[nH]4)cc3)cc2)CC1
5. CCN1CCN(c2ccccc2C(=O)c2c[nH]c(C(=O)Nc3ccc(-c4cnco4)cc3)c2)CC1
6. O=C(Nc1ccc(Cc2ccccc2)cc1)c1cc(C(=O)c2ccccc2C(F)(F)F)c[nH]1
7. CSc1ccccc1-c1nccc2[nH]c(C(=O)Nc3ccc(-c4cncs4)cc3)cc12

Result:
[9.7, 183, 88, 44, 2820, 14200, 11200]

###

target: GST-YTHDC1 (345-509) protein (Homo sapiens, UniProt Q96MU7); construct: GST-YTHDC1 (345-509) protein; test: Fluorescence polarization-based in vitro enzyme-level test against YTHDC1; format: binding; details: 30 nM GST-YTHDC1 (345-509), FAM-labeled m6A-modified single-stranded oligonucleotide, 18° C., 4 hours; read-out: IC50 (Inhibitory Activity against YTHDC1)
pIC50: −log10 of the molar value.
Hi, to clarify the labels: criterion met covers pIC50 from 7 upward, criterion not met covers anything below 7.

# count of solved cases: 5
Query: Confirm if pIC50 reported for the compound O=C(Nc1ccc(-c2cnco2)cc1)c1cc(C(=O)c2ccccc2N2CC3(CCC3)C2)c[nH]1 is 7 or above.
Result: criterion met

Query: Textbook exercise: given the entry Cc1cc(-c2cnco2)ccc1NC(=O)c1cc(C(=O)c2ccccc2C(F)(F)F)c[nH]1 , state whether its pIC50 is greater than or equal to 7.
Result: criterion met

Query: Given O=C(Nc1ccc(-c2ccc(N3CCCC3)cc2)cc1)c1cc(C(=O)c2ccccc2C(F)(F)F)c[nH]1 , state whether its pIC50 is at least 7.
Result: criterion not met

Query: Please check the record O=C(c1ccc(C(F)(F)F)cc1)c1c[nH]c(C(=O)Nc2ccc(-c3cncs3)cc2)c1 and state if its pIC50 is at or above 7.
Result: criterion not met

Query: Say whether O=C(Nc1ccc(-c2cncs2)cc1)c1cc2c(-c3ccccc3-c3ccccc3)nccc2[nH]1 shows pIC50 of 7 or more.
Result: criterion not met

Others:
Query: Has O=C(Nc1ccc2c(c1)OCC1CNCCN21)c1cc(C(=O)c2ccccc2C(F)(F)F)c[nH]1 (centres unmarked) a recorded pIC50 greater than or equal to 7?
Result: criterion not met

Query: Exam item: decide whether the reported pIC50 for O=C(Nc1cccnc1)c1cc(C(=O)c2c(Br)ccc(F)c2F)c[nH]1 is at least 7.
Result: criterion not met

Query: # check: pIC50 of O=C(Nc1ccc(-c2cncs2)cc1)c1cc2c(-c3ccccc3OC(F)F)nccc2[nH]1 is greater than or equal to 7
Result: criterion not met

Query: Identify whether the reported pIC50 of the following compound is 7 or greater: CC(C)(C)NS(=O)(=O)c1ccccc1-c1nccc2[nH]c(C(=O)Nc3ccc(-c4cncs4)cc3)cc12
Result: criterion not met

Query: Tell me whether pIC50 is at least 7 here: O=C(Nc1ccc(-c2cnc(N3CC(F)(F)C3)s2)cc1)c1cc(C(=O)c2ccccc2C(F)(F)F)c[nH]1
Result: criterion not met

Query: hey, is pIC50 for this one >= 7? O=C(Nc1cccnc1)c1cc(C(=O)c2c(F)cc(F)cc2Br)c[nH]1
Result: criterion not met

Query: Form field: pIC50 at least 7? Entry: O=C(Nc1ccc(-c2cnco2)cc1)c1cc(C(=O)c2ccccc2C2CCCC2)c[nH]1
Result: criterion met

Query: Given the entry CN(C)c1ncc(-c2ccc(NC(=O)c3cc(C(=O)c4ccccc4C(F)(F)F)c[nH]3)cc2)o1 , answer whether its pIC50 meets or surpasses 7.
Result: criterion met

Query: Could you verify whether the entry CCN(C)c1ncc(-c2ccc(NC(=O)c3cc(C(=O)c4ccccc4C(F)(F)F)c[nH]3)cc2)o1 shows pIC50 of no less than 7?
Result: criterion met

Query: Given Cc1ncc(-c2ccc(NC(=O)c3cc(C(=O)c4ccccc4C(F)(F)F)c[nH]3)cc2)s1 , state whether its pIC50 is at least 7.
Result: criterion met

Query: Dear colleague, could you confirm whether O=C(Nc1ccc(-c2cnco2)cc1)c1cc(C(=O)c2ccccc2N2CCC(F)C2)c[nH]1 (centres unmarked) has pIC50 at or above 7?
Result: criterion met

###

What log10 of IC50 was measured for each of the following?
molecular target: GST-YTHDC1 (345-509) protein (Homo sapiens, UniProt Q96MU7); construct: GST-YTHDC1 (345-509) protein; assay: Fluorescence polarization-based in vitro enzyme-level test against YTHDC1; format: binding; conditions: 30 nM GST-YTHDC1 (345-509), FAM-labeled m6A-modified single-stranded oligonucleotide, 18° C., 4 hours; read-out: IC50 (Inhibitory Activity against YTHDC1)
Transform log10 | Measure IC50 | Unit nM

Use the examples below as a reference point.
Query: Note down log10 of IC50 recorded for CN1CCN2c3ccc(NC(=O)c4cc(C(=O)c5ccccc5C(F)(F)F)c[nH]4)cc3OCC2C1 (stereo not drawn)
Result: 2.61

Query: Tell us which log10 of IC50 value is on record for CCSc1ccccc1-c1nccc2[nH]c(C(=O)Nc3ccc(-c4cncs4)cc3)cc12
Result: 3.22

Query: Query log10 of IC50 for O=C(Nc1cccc(C(F)(F)F)c1)c1cc(C(=O)c2ccccc2C(F)(F)F)c[nH]1
Result: 3.42

Query: Give the reported value of log10 of IC50 for this record: C[C@H]1CN(c2ccccc2C(=O)c2c[nH]c(C(=O)Nc3ccc(-c4cnco4)cc3)c2)C[C@H](C)O1
Result: 1.61

Query: Kindly indicate its recorded log10 of IC50. Item: O=C(Nc1ccc(-c2cncs2)cc1)c1cc2c(-c3ccccc3OC(F)(F)F)nccc2[nH]1
Result: 2.14

Each molecule below has a reported value. Please supply its log10 of IC50.
1. CS(=O)(=O)Nc1ccccc1-c1nccc2[nH]c(C(=O)Nc3ccc(-c4cncs4)cc3)cc12
2. O=C(Nc1ccc(-c2cnco2)cc1)c1cc(C(=O)c2ccccc2CCCCO)c[nH]1
3. O=C(Nc1ccc(-c2cnc(N3CCCCC3)s2)cc1)c1cc(C(=O)c2ccccc2C(F)(F)F)c[nH]1
4. O=C(Nc1ccc(-c2cnco2)cc1)c1cc(C(=O)c2ccccc2C(F)(F)F)c[nH]1 [Compound 28]
5. O=C(Nc1ccc(Br)cc1)c1cc(C(=O)c2ccccc2C(F)(F)F)c[nH]1
6. O=C(Nc1ccc(-c2cnc(N3CCN(S(=O)(=O)C4CC4)CC3)o2)cc1)c1cc(C(=O)C2C=CC=CC2Br)c[nH]1 (stereo not drawn)

Result:
1: 2.82; 2: 0.95; 3: 2.53; 4: 1.00; 5: 1.61; 6: 3.37

Answer for every listed entry: what is its log10 of IC50? The entries follow.
1. O=C(Nc1ccc(-c2cnco2)cc1)c1cc(C(=O)c2ccccc2N2CCC(c3ccccc3)C2)c[nH]1 (stereo not drawn)
2. O=C(Nc1ccc(-c2cnc(N3CCNCC3)o2)cc1)c1cc(C(=O)c2ccccc2C(F)(F)F)c[nH]1

Result:
3.19
1.79

// for each molecule in input: emit log10 of IC50
1. O=C(Nc1ccc(-c2cnc(N3CCOCC3)o2)cc1)c1cc(C(=O)c2ccccc2Br)c[nH]1
2. N#Cc1ccccc1-c1nccc2[nH]c(C(=O)Nc3ccc(-c4cncs4)cc3)cc12

Result:
[2.09, 3.59]

Hi! Can you tell me log10 of IC50 for each of these molecules?
1. O=C(Nc1ccc(-c2cnc(N3CCOCC3)s2)cc1)c1cc(C(=O)c2ccccc2C(F)(F)F)c[nH]1
2. C[C@@H]1CN(c2ccccc2C(=O)c2c[nH]c(C(=O)Nc3ccc(-c4cnco4)cc3)c2)C[C@H](C)O1
3. O=C(Nc1ccc(-c2cnco2)cc1)c1cc(C(=O)c2ccccc2-c2ccccc2)c[nH]1
4. CN(C)c1ccccc1-c1nccc2[nH]c(C(=O)Nc3ccc(-c4cncs4)cc3)cc12

Result:
1: 1.23; 2: 2.28; 3: 1.15; 4: 3.40
